- EXPERIMENT_SUMMARY: plasmodial surface anion channel blockers, osmotic lysis – cell-based, P. falciparum Indochina, OD700, 18 h, primary screen (AID 1157)
- CONDITION_LABEL: P. falciparum Indochina infected erythrocytes, osmotic lysis OD700, 18 h; higher = more signal, called active from +8 up or from −8 down
MEASUREMENT_NAME: z-score
Reply with just the number.

COCCOC(=O)N1C(=O)[C@@]2(c3cc(C#CCC(C(=O)OC)C(=O)OC)ccc31)[C@H](C(=O)N1CCCCCCC1)[C@H]1C(=O)O[C@H](c3ccccc3)[C@H](c3ccccc3)N1[C@@H]2c1ccc(O)cc1    0.336

// query Item O=C1C2C=CC(C(O)c3ccccn3)N(Nc3ccccc3)C2C(=O)N1c1ccccc1 (stereo not drawn) has what recorded z-score?
// result 0.974

// query Another compound: CC(C)C(CO)N1C(=O)[C@@H]2[C@H]3C(=O)OCC=C[C@H]3OC23C=CCN(CCN2CCOCC2)C(=O)[C@@H]13 (stereo partly drawn)
// result 0.0875
